Values from PubChem BioAssay (NCATS)

Assay: qHTS Assay for Lipid Storage Modulators (AID 1519)
Details: Drosophila S3 cells, BODIPY lipid droplet/cell ratio, laser cytometry; measured here: lipid channel max response; cells loaded with oleic acid
Results filed as inconclusive are left out.
readout label: max response (%)

> print(dat)
                                   molecule  unit.of.measure  numeric.readout
1  C=C(C)[C@H]1[C@H]2OC(=O)[C@@H]1[C@]1(O)C[C@H]3O[C@]34C(=O)O[C@H]2[C@@]14C                %            -3.43
2  CC(=O)N1CC2CC(C1)c1cccc(=O)n1C2 (centres undefined)                %            -33.4
3         CC[C@@]1(c2ccc(N)cc2)CCC(=O)NC1=O                %            -2.21
4  COC[C@]12CN(C=O)C3C4C(OC)C1[C@@]3(C1CC3(O)C(OC)C(O)C4(OC(C)=O)C1C3OC(=O)c1ccccc1)[C@@H](OC)CC2O (some centres undefined)                %            -7.99

----------
Experiment: Cell Viability - H-4-II-E (AID 543);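 also: cells exposed to compound for 40 hours; nearly all actives have a fitted effect of over 35% in size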
Conditions: H-4-II-E rat hepatoma viability; series mostly up to 92.2 µM
Results filed as inconclusive are left out. The source made the active and inactive calls. Calls come from the whole dose curve; as a rule, active = well fitted cell-killing curve with a large enough effect; inconclusive = small, poorly fitted or top-dose-only effect; inactive = flat fitted curve, though single readings scatter.
Labels: active, inactive

> print(dat)
                                    compound  class.label
 1                         [O-][Br+2]([O-])O     inactive
 2                                 C=CC(N)=O     inactive
 3         C1CCC2CCCCC2C1 (stereo not drawn)     inactive
 4  COC1=CC(=O)OC(CCc2ccccc2)C1 (stereo not drawn)     inactive
 5  ClC1=C(Cl)C2(Cl)C3C4CC(C5OC45)C3C1(Cl)C2(Cl)Cl (stereo not drawn)     inactive
 6                       C=CCOC(=O)c1ccccc1N     inactive
 7       ClC(Cl)=C(c1ccc(Cl)cc1)c1ccc(Cl)cc1     inactive
 8                                Cc1ccccc1N     inactive
 9                          c1ccc2c(c1)CCCC2     inactive
10      COC(=O)NC(=S)Nc1ccccc1NC(=S)NC(=O)OC     inactive
11                               C=CCOC(C)=O     inactive
12          c1ccc(OP(Oc2ccccc2)Oc2ccccc2)cc1     inactive
13                          Clc1ccc2ccccc2c1     inactive
14                         CC(C)(OO)c1ccccc1       active
15                OCC1CO1 (stereo not drawn)     inactive
16                        CC(C)(C)OOC(C)(C)C     inactive
17                           NC(=S)Nc1ccccc1     inactive
18              O=[N+]([O-])c1ccc(Cl)c(Cl)c1     inactive

----------
Molecular target: Retinoic acid receptor RXR-alpha (Homo sapiens) (UniProt P19793)
Sequence (P19793 whole entry, looked up): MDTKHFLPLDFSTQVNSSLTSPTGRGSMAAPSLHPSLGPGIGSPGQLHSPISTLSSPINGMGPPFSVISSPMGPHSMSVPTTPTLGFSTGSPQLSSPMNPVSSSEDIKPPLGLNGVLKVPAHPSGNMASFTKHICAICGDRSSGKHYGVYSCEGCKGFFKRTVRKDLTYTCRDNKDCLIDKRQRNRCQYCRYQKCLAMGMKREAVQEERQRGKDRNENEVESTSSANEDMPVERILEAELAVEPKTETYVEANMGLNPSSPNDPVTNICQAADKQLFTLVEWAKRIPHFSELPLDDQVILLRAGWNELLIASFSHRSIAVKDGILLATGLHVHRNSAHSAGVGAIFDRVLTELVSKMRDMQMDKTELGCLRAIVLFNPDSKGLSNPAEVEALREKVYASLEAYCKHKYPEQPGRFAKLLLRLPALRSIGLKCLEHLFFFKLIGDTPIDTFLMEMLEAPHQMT
Test: qHTS assay for small molecule agonists of retinoid X receptor alpha signaling (AID 588544)
Conditions: HEK293T RXRa-UAS-bla, beta-lactamase reporter, 18 h; series mostly up to 76.7 µM
Records with an inconclusive call do not appear. Calls of active or inactive are those of the source. Calls come from the whole dose curve.
Labels: active, inactive

> print(dat)
                                    molecule  class.label
 1                       ClC(Cl)(Cl)c1ccccc1     inactive
 2                             O=C=NC1CCCCC1     inactive
 3                                    CN=C=S     inactive
 4                   Cc1cccc([N+](=O)[O-])c1     inactive
 5              O=[N+]([O-])c1ccc(Cl)c(Cl)c1     inactive
 6                                 C=CC(N)=O     inactive
 7                                 C=C(Cl)Cl     inactive
 8                             Nc1ccc(Br)cc1     inactive
 9                         COc1ccc(C=O)cc1OC     inactive
10           OCC(Br)CBr (stereo unspecified)     inactive
11  C[C@]12CC[C@H]3[C@@H](CCC4=CC(=O)CC[C@@]43C)[C@@H]1CC[C@@H]2O       active
12                O=C(O)COc1cc(Cl)c(Cl)cc1Cl     inactive
13              CCc1cccc(CC)c1N(COC)C(=O)CCl     inactive
14                            CCOc1ccc(N)cc1     inactive
15          c1ccc(OP(Oc2ccccc2)Oc2ccccc2)cc1     inactive
16                               C=CC(=O)OCC     inactive
